- procedure details: Cytometry Cell-Based qHTS for Inhibitors of the mTORC1 Signaling Pathway in MEF cells (AID 2668);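 further: Tsc2-/- p53-/- mouse embryonic fibroblasts stably re-expressing wild-type Tsc2; percent cells positive for phospho-rpS6 Ser235/236 relative to propidium iodide stain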
- condition context: mTORC1 pathway readout; series mostly up to 38.3 µM
Inconclusive results are not listed. Calls of active or inactive are those of the source. The call rests on the fitted dose curve; in most records, active means well fitted inhibition curve with a large enough effect; inconclusive means small, poorly fitted or top-dose-only effect; inactive means flat fitted curve, though single readings scatter. Residues, ends and D or L forms follow the SMILES beside them. *: point of attachment. Cbz = O=C(OCc1ccccc1)*
Permitted responses: active, inactive

[
  {
    "compound": "COc1cc2c(CCNC(C)=O)c[nH]c2cc1O",
    "class label": "inactive"
  },
  {
    "compound": "CCn1c(=O)[nH]c2cc(Cl)c(Cl)cc21",
    "class label": "inactive"
  }
]

Hi, sorry to bother you, what did the test record for "O=c1[nH]c(=S)[nH]c(-c2ccccc2)c1Cc1c(O)ccc2ccccc12" ?
inactive

Hi, sorry to bother you, what did the test record for CC(C)[C@H](NC(=O)OCc1ccccc1)C(=O)N[C@H](C=O)Cc1ccccc1 (Cbz-Val-Phe-aldehyde) ?
inactive

Hi, do you know how "NC(N)=NC(N)=Nc1ccccc1" came out in this test?
inactive

---

- procedure details: qHTS for differential inhibitors of proliferation of Plasmodium falciparum line 3D7 (AID 1876)
- condition context: P. falciparum 3D7 proliferation inhibition; series mostly up to 28.7 µM
Records with an inconclusive call do not appear. The source made the active and inactive calls. Calls come from the whole dose curve; as a rule, active = well fitted curve in the direction sought with a large enough effect; inconclusive = small, poorly fitted or top-dose-only effect, or another doubt; inactive = no such curve, though single readings can be large or run the other way.
Respond only with the outcome that fits, drawn from TRUE = active, FALSE = inactive

[
  {
    "compound": "CN1CCCC1CCOC(C)(c1ccccc1)c1ccc(Cl)cc1 (centres undefined)",
    "class label": "TRUE"
  },
  {
    "compound": "CCN(CC)CCCCCCCCOC(=O)c1cc(OC)c(OC)c(OC)c1",
    "class label": "TRUE"
  },
  {
    "compound": "CNc1cc(NS(=O)(=O)c2ccc(N)cc2)nc(NC)n1",
    "class label": "FALSE"
  },
  {
    "compound": "CC(C)C[C@H](NC(=O)[C@H](O)[C@H](N)Cc1ccccc1)C(=O)O",
    "class label": "FALSE"
  },
  {
    "compound": "CCCCCC(O)CCCC(=O)O (centres undefined)",
    "class label": "FALSE"
  },
  {
    "compound": "NC1CCN(O)C1=O (centres undefined)",
    "class label": "FALSE"
  }
]

What outcome does the record of this test show for NC1(C(=O)O)CCc2cc(C(=O)O)ccc21 (centres undefined) ?
FALSE

For "O=C1Nc2ccc(I)cc2/C1=C/c1cc(Br)c(O)c(Br)c1" , which call appears in the assay record?
TRUE

Could you kindly confirm the outcome this assay logged for "O=c1[nH]c2cc(Cl)ccc2c(O)c1-c1ccc(Oc2ccccc2)cc1" ?
FALSE

Any idea what this test logged for "CCCCCCCCCCCCCCCCCCOC[C@H](COP(=O)([O-])OCC[N+](C)(C)C)OC" ?
FALSE

Give the logged outcome of this assay for the following compound: "CC[C@@H]1Cc2cc(O)ccc2C2=C1c1ccc(O)cc1C[C@H]2CC"
TRUE

In this assay, the call recorded for "N[C@@H](CS(=O)O)C(=O)O" was what?
FALSE

State the result this test recorded for CCC1(O)CC2CN(CCc3c([nH]c4ccccc34)[C@@](C(=O)OC)(c3cc4c(cc3OC)N(C=O)C3[C@]45CCN4CC=C[C@@](CC)([C@@H](OC(C)=O)[C@]3(O)C(=O)OC)[C@H]45)C2)C1 (some centres undefined) .
TRUE

Recorded test call requested for O=C1OC(=O)C2C3CCC(O3)C12 (centres undefined)
FALSE

# outcome recorded in this test, key = "O=C(O)/C=C/c1ccc(O)c(O)c1"
FALSE

Dear colleague, could you share the recorded outcome for "CCCn1c(=O)c2c(ncn2C)n(CCC)c1=O" when you have a moment?
FALSE

Recorded test outcome, item "Cc1nc2c(OCc3ccccc3)cccn2c1CC#N"
FALSE

Returns: the outcome recorded for "C#CCn1c(=O)c2c(ncn2C)n(C)c1=O" in this assay.
FALSE

# lookup: test call for "O=C(O)[C@H]1NCCC[C@H]1C(=O)O"
FALSE

I would be grateful if you could indicate the recorded call for CC(N)(Cc1ccc(O)c(O)c1)C(=O)O (centres undefined) .
FALSE

Test call for this compound, please: "N[C@H]1CONC1=O"
FALSE

Query: recorded result category for "NC(=O)CC[C@H](N)C(=O)O" in this test
FALSE

Dear all, I need the recorded test outcome for "[Li+]" , thank you.
FALSE

Could you check what this test reported for "COc1ccccc1N1CCN(CCCNc2c(C)c(=O)n(C)c(=O)n2C)CC1" ?
TRUE

# credit: PubChem BioAssay (NCATS)
